species on record: Homo sapiens; assay: Inhibition of human platelet CRTAase assessed as inhibition of acetylation of glutathione S-transferase; set-up: concentration or dose not given beside the values; conditions: concentration not given here
property name: inhibition (%)

A selection of reference data follows.
smiles str: CCOC(=O)Cn1c(=O)cc(C)c2ccc(OC(C)=O)cc21
inhibition, %: 10
//
smiles str: CCOC(=O)COc1cc(C)c2ccc(OC(C)=O)cc2n1
inhibition, %: 13.2
//
smiles str: CC(=O)Oc1cccc2c(C)cc(=O)[nH]c12
inhibition, %: 12
//
smiles str: CC(=O)Oc1cc(=O)[nH]c2ccccc12
inhibition, %: 0
//
smiles str: CCCCCCc1c(C)c2cccc(OC(C)=O)c2[nH]c1=O
inhibition, %: 0
//
smiles str: CCc1c(C)c2ccc(OC(C)=O)cc2[nH]c1=O
inhibition, %: 13
//
smiles str: CCOC(=O)COc1cc(C)c2cc(OC(C)=O)ccc2n1
inhibition, %: 28.6
//
smiles str: Cc1cc(=O)[nH]c2ccc(O)cc12
inhibition, %: 0
//
smiles str: CC(=O)Oc1ccc2[nH]c(=O)cc(C)c2c1
inhibition, %: 31
//
smiles str: CCc1c(C)c2cc(OC(C)=O)ccc2[nH]c1=O
inhibition, %: 26

A = CCOC(=O)Cn1c(=O)cc(C)c2cc(OC(C)=O)ccc21
B = CCc1c(C)c2cccc(OC(C)=O)c2[nH]c1=O
C = CCCCCCc1c(C)c2cc(OC(C)=O)ccc2[nH]c1=O
D = CCCCCCc1c(C)c2ccc(OC(C)=O)cc2[nH]c1=O
q: Falling order of inhibition, please. Note for the reader: the ranking is given by listing the labels in the order requested.
a: A, B, C, D

###

test system: Platelet; assay: Antiplatelet activity in human platelet rich plasma assessed as inhibition of ADP-induced platelet aggregation measured for 6 mins by aggregometry; assay type: functional
The source made the active and inactive calls. No cut-off for these calls is given here.
The reply should be one of these categories: Yes = active, No = inactive

Reference set (3 entries):
smiles str: CC(=O)Oc1ccc2c(C)cc(=O)[nH]c2c1
class label: Yes

smiles str: CCOC(=O)COc1cc(C)c2ccc(OC(C)=O)cc2n1
class label: No

smiles str: CCOC(=O)Cn1c(=O)cc(C)c2ccc(OC(C)=O)cc21
class label: Yes

q: I would be grateful if you could indicate the recorded call for `CC(=O)Oc1cccc2c(C)cc(=O)[nH]c12` .
a: Yes

q: I would be grateful if you could indicate the recorded call for `CC(=O)Oc1ccc2[nH]c(=O)cc(C)c2c1` .
a: Yes

q: I would be grateful if you could indicate the recorded call for `CCOC(=O)COc1cc(C)c2cc(OC(C)=O)ccc2n1` .
a: No

q: I would be grateful if you could indicate the recorded call for `CCOC(=O)Cn1c(=O)cc(C)c2cc(OC(C)=O)ccc21` .
a: Yes
